Data origin, for the record: PubChem BioAssay

# Experimental protocol: small-molecule microarray binders of probe aWnt5a, primary screen, biochemical, biotinylated probe, 635/667 nm fluorescence (AID 1113);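 also: score merges 667 nm fluorescence intensity with signal-to-noise per printed feature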
# Conditions used: higher = more signal

- Molecule: "O=C(N1CCOCC1)[C@]1(CCS(=O)(=O)c2ccccc2)N=C(c2ccc(OCCCO)cc2)O[C@@H]1c1ccccc1"
  composite z-score: -0.0445
- Molecule: "CC(C)C[C@@H]1NC(=O)[C@@H]2C[C@H](C(=O)NCCCCCNC(=O)CS)[C@H](c3ccc(O)cc3)N2C1=O"
  composite z-score: -0.12
- Molecule: "C=C(C(=O)CC[C@@H](OC(=O)c1ccccc1-c1ccccc1C(=O)O)c1ccc(CO)o1)C(C)C"
  composite z-score: -0.118
- Molecule: "O=C1NC(=O)C2C1C=CC(C(O)c1ccc(F)cc1)N2Nc1ccc(Cl)cc1Cl (centres undefined)"
  composite z-score: -0.0403
